- targetEntity: AXL kinase (Homo sapiens)
- Construct: purchased Carna 08-107
- assayOverview: Inhibitory activity of compound against AXL kinase (HTRF KinEASE)
- Assay type: biochemical
- conditionsUsed: AXL enzyme (Carna, 08-107), ATP 15 μM; "<" means below detection limit of the test
measuredAttribute: IC50 (nM)

structure: CP(C)(=O)c1ccccc1Nc1nc(Nc2ccc3c(c2)CC[C@@H](N2CCCC2)CC3)ncc1Cl
unitSpec: nM
IC50: 2.35

1 = CP(C)(=O)c1c(Nc2nc(Nc3ccc4c(c3)CC[C@@H](N3CCCC3)CC4)ncc2Cl)ccc2nccnc12
2 = Clc1cnc(Nc2ccc3c(c2)CC[C@@H](N2CCCC2)CC3)nc1Nc1cccc2c1OCO2
3 = CN(C)C(=O)c1occc1Nc1nc(Nc2ccc3c(c2)CC[C@@H](N2CCCC2)CC3)ncc1Cl
Challenge: In this exercise, place the 3 compounds in ascending sequence of their recorded IC50. Would you mind listing the labels in the order asked for?
Response given: 1, 3, 2

* * *

- targetEntity: AXL kinase (Homo sapiens)
- Construct: purchased Carna 08-107
- Sequence (P30530 473-894 limits assumed): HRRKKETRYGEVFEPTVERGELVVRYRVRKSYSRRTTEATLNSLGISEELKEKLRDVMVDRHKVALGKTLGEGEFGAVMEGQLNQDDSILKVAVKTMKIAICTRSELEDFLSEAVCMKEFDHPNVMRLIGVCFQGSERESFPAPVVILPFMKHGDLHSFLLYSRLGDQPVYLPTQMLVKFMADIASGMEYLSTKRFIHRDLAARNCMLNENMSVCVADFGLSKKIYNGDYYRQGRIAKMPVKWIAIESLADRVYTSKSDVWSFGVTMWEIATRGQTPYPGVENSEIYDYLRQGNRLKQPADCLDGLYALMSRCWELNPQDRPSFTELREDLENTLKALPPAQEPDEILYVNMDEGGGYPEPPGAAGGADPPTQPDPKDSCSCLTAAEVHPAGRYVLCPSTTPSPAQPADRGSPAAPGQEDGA
- assayOverview: Inhibitory activity of compound against AXL kinase (HTRF KinEASE)
- Format: biochemical
- conditionsUsed: AXL enzyme (Carna, 08-107), ATP 15 μM; "<" means below detection limit of the test
measuredAttribute: IC50 (nM)

Would you please look over these solved cases?
structure: COc1cc(P(C)(C)=O)c(Nc2nc(Nc3ccc4c(c3)CC[C@@H](N3CCCC3)CC4)ncc2Cl)cc1C#N
targetEntity: AXL kinase (Homo sapiens)
measuredAttribute: IC50
unitSpec: nM
measValue: 13.1
//
structure: Cc1ccc(P(C)(C)=O)c(Nc2nc(Nc3ccc4c(c3)CC[C@@H](N3CCCC3)CC4)ncc2Cl)c1
targetEntity: AXL kinase (Homo sapiens)
measuredAttribute: IC50
unitSpec: nM
measValue: 12.3

A = CNC(=O)c1cnc(OC)cc1Nc1nc(Nc2ccc3c(c2)CC[C@@H](N2CCCC2)CC3)ncc1Cl
B = CNC(=O)c1c(Nc2nc(Nc3ccc4c(c3)CC[C@@H](N3CCCC3)CC4)ncc2Cl)cc[nH]c1=O
C = CNC(=O)c1c(Nc2nc(Nc3ccc4c(c3)CC[C@@H](N3CCCC3)CC4)ncc2Cl)ccc2nccnc12
D = Cc1cccc(Nc2nc(Nc3ccc4c(c3)CC[C@@H](N3CCCC3)CC4)ncc2Cl)c1P(C)(C)=O
Challenge: In this exercise, place the 4 molecules in ascending sequence of their recorded IC50. Would you mind listing the labels in the order asked for?
Response given: C, D, A, B

* * *

- targetEntity: AXL kinase (Homo sapiens)
- Construct: purchased Carna 08-107
- assayOverview: Inhibitory activity of compound against AXL kinase (HTRF KinEASE)
- Type: biochemical
- conditionsUsed: AXL enzyme (Carna, 08-107), ATP 15 μM; "<" means below detection limit of the test
measuredAttribute: IC50 (nM)

Would you please look over these solved cases?
molecule: CP(C)(=O)c1cc(C2CC2)ccc1Nc1nc(Nc2ccc3c(c2)CC[C@@H](N2CCCC2)CC3)ncc1Cl
unitSpec: nM
IC50: 2.41
--
molecule: CN1Cc2cccc(Nc3nc(Nc4ccc5c(c4)CCN(C4CCOCC4)CC5)ncc3Cl)c2C1=O
unitSpec: nM
IC50: 9.85
--
molecule: CNC(=O)c1ccccc1Nc1nc(Nc2ccc3c(c2)CCN(C2CCOCC2)CC3)ncc1Cl
unitSpec: nM
IC50: 0.8

P = CNC(=O)c1ncccc1Nc1nc(Nc2ccc3c(c2)CC[C@@H](N2CCCC2)CC3)ncc1Cl
Q = CP(C)(=O)c1cc(C2(C#N)CC2)ccc1Nc1nc(Nc2ccc3c(c2)CC[C@@H](N2CCCC2)CC3)ncc1Cl
R = CN(C)S(=O)(=O)c1cccc(Nc2nc(Nc3ccc4c(c3)CC[C@@H](N3CCCC3)CC4)ncc2Cl)c1
S = CNC(=O)c1ccccc1Nc1nc(Nc2ccc3c(c2)CCN(C2CCCC2)CC3)ncc1Cl
Challenge: In this exercise, place the 4 molecules in ascending sequence of their recorded IC50. Would you mind listing the labels in the order asked for?
Response given: S, Q, P, R

1 = CC(C)(O)c1ccccc1Nc1nc(Nc2ccc3c(c2)CC[C@@H](N2CCCC2)CC3)ncc1Cl
2 = NC(=O)c1cc(F)ccc1Nc1nc(Nc2ccc3c(c2)CC[C@@H](N2CCCC2)CC3)ncc1Cl
3 = CP(C)(=O)c1cc(N2CC3(COC3)C2)ccc1Nc1nc(Nc2ccc3c(c2)CC[C@@H](N2CCCC2)CC3)ncc1Cl
Challenge: In this exercise, place the 3 molecules in ascending sequence of their recorded IC50. Would you mind listing the labels in the order asked for?
Response given: 2, 1, 3

A = CNC(=O)c1cc(C#N)ccc1Nc1nc(Nc2ccc3c(c2)CC[C@@H](N2CCCC2)CC3)ncc1Cl
B = CP(C)(=O)c1cc(F)ccc1Nc1nc(Nc2ccc3c(c2)CC[C@@H](N2CCCC2)CC3)ncc1Cl
Challenge: # compare IC50 for A vs B ; return the one with the smaller value I would appreciate it if you answered with the label of your choice.
Response given: A

* * *

- assayOverview: Pharmacokinetic study of compounds on ICR mice
- Format: in vivo
- conditionsUsed: mouse, po; male ICR mice, 10 mg-kg^1 by gavage, plasma
measuredAttribute: Cmax (ng/mL)

structure: CP(C)(=O)c1ccccc1Nc1nc(Nc2ccc3c(c2)CC[C@@H](N2CCCC2)CC3)ncc1Cl
measuredAttribute: Cmax
measValue: 349

I = CNC(=O)c1cc(F)ccc1Nc1nc(Nc2ccc3c(c2)CC[C@@H](N2CCCC2)CC3)ncc1Cl
II = CP(C)(=O)c1c(Nc2nc(Nc3ccc4c(c3)CC[C@@H](N3CCCC3)CC4)ncc2Cl)ccc2nccnc12
Challenge: Which item exceeds the other in Cmax, I or II ? I would appreciate it if you answered with the label of your choice.
Response given: I
(I: 342 ng/mL, II: 69 ng/mL)

* * *

- targetEntity: AXL kinase (Homo sapiens, UniProt P30530)
- Construct: purchased Carna 08-107
- assayOverview: Inhibitory activity of compound against AXL kinase (HTRF KinEASE)
- Assay type: biochemical
- conditionsUsed: AXL enzyme (Carna, 08-107), ATP 15 μM; "<" means below detection limit of the test
measuredAttribute: IC50 (nM)

a = CNC(=O)c1ncsc1Nc1nc(Nc2ccc3c(c2)CC[C@@H](N2CCCC2)CC3)ncc1Cl
b = CNC(=O)c1cc(F)ccc1Nc1nc(Nc2ccc3c(c2)CCN(C2CCOCC2)CC3)ncc1Cl
c = CNC(=O)c1cc(F)ccc1Nc1nc(Nc2ccc3c(c2)CC[C@@H](N2CCCC2)CC3)ncc1Cl
Challenge: Place the items in sequence of falling IC50. Would you mind listing the labels in the order asked for?
Response given: a, b, c
(a: 7.21 nM, b: 0.8 nM, c: 0.11 nM)

I = CP(C)(=O)c1cc(F)c(Cl)cc1Nc1nc(Nc2ccc3c(c2)CC[C@@H](N2CCCC2)CC3)ncc1Cl
II = CP(C)(=O)c1cc(C#N)ccc1Nc1nc(Nc2ccc3c(c2)CC[C@@H](N2CCCC2)CC3)ncc1Cl
Challenge: Which item exceeds the other in IC50, I or II ? I would appreciate it if you answered with the label of your choice.
Response given: I
(I: 5.45 nM, II: 3.1 nM)

P = CNC(=O)c1cc(P(C)(C)=O)ccc1Nc1nc(Nc2ccc3c(c2)CC[C@@H](N2CCCC2)CC3)ncc1Cl
Q = Cc1cc(Cl)cc(Nc2nc(Nc3ccc4c(c3)CC[C@@H](N3CCCC3)CC4)ncc2Cl)c1P(C)(C)=O
R = CC(C)(O)c1ccc(Nc2nc(Nc3ccc4c(c3)CC[C@@H](N3CCCC3)CC4)ncc2Cl)c(P(C)(C)=O)c1
Challenge: In this exercise, place the 3 compounds in ascending sequence of their recorded IC50. Would you mind listing the labels in the order asked for?
Response given: P, Q, R

* * *

- targetEntity: AXL kinase (Homo sapiens)
- Construct: purchased Carna 08-107
- assayOverview: Inhibitory activity of compound against AXL kinase (HTRF KinEASE)
- Type: biochemical
- conditionsUsed: AXL enzyme (Carna, 08-107), ATP 15 μM; "<" means below detection limit of the test
measuredAttribute: IC50 (nM)

Would you please look over these solved cases?
compound: CS(=O)(=O)Nc1ccccc1Nc1nc(Nc2ccc3c(c2)CC[C@@H](N2CCCC2)CC3)ncc1Cl
measuredAttribute: IC50
measValue: 1.05
--
compound: COCc1ccc(Nc2nc(Nc3ccc4c(c3)CCC(N3CC5CC3C5)CC4)ncc2Cl)c(P(C)(C)=O)c1 (single isomer, unassigned) [Example 116 Isomer 116-1]
measuredAttribute: IC50
measValue: 4.94
--
compound: COc1cc(Nc2nc(Nc3ccc4c(c3)CC[C@@H](N3CCCC3)CC4)ncc2Cl)c(P(C)(C)=O)cc1F
measuredAttribute: IC50
measValue: 207
--
compound: Clc1cnc(Nc2ccc3c(c2)CC[C@@H](N2CCCC2)CC3)nc1Nc1ccccc1-c1ncc[nH]1
measuredAttribute: IC50
measValue: 0.19
--
compound: O=S(=O)(Nc1ccccc1Nc1nc(Nc2ccc3c(c2)CC[C@@H](N2CCCC2)CC3)ncc1Cl)C1CC1
measuredAttribute: IC50
measValue: 2.08
--
compound: CC(C)Oc1ccccc1Nc1nc(Nc2ccc3c(c2)CC[C@@H](N2CCCC2)CC3)ncc1Cl
measuredAttribute: IC50
measValue: 8.28
--
compound: CC(C)S(=O)(=O)c1ccccc1Nc1nc(Nc2ccc3c(c2)CC[C@@H](N2CCCC2)CC3)ncc1Cl
measuredAttribute: IC50
measValue: 0.11
--
compound: COC(=O)c1ccncc1Nc1nc(Nc2ccc3c(c2)CC[C@@H](N2CCCC2)CC3)ncc1Cl
measuredAttribute: IC50
measValue: 19
--
compound: CC(C)Oc1ccc(Nc2nc(Nc3ccc4c(c3)CC[C@@H](N3CCCC3)CC4)ncc2Cl)c(P(C)(C)=O)c1
measuredAttribute: IC50
measValue: 2.03
--
compound: Cc1cc(Nc2nc(Nc3ccc4c(c3)CC[C@@H](N3CCCC3)CC4)ncc2Cl)c(P(C)(C)=O)cc1F
measuredAttribute: IC50
measValue: 9.68

a = CNC(=O)c1cccnc1Nc1nc(Nc2ccc3c(c2)CC[C@@H](N2CCCC2)CC3)ncc1Cl
b = CN1Cc2cccc(Nc3nc(Nc4ccc5c(c4)CC[C@@H](N4CCCC4)CC5)ncc3Cl)c2C1=O
Challenge: # compare IC50 for a vs b ; return the one with the smaller value I would appreciate it if you answered with the label of your choice.
Response given: b
(b: 0.31 nM, a: 6.53 nM)

I = Cc1cnc(-c2ccccc2Nc2nc(Nc3ccc4c(c3)CC[C@@H](N3CCCC3)CC4)ncc2Cl)o1
II = O=C1NCc2cccc(Nc3nc(Nc4ccc5c(c4)CC[C@@H](N4CCCC4)CC5)ncc3Cl)c21
Challenge: Which item exceeds the other in IC50, I or II ? I would appreciate it if you answered with the label of your choice.
Response given: I

Hey, just so you know, these numbers are from patent US20230227484A1.
